Assign inhibition to each entry below.
- TEST_TARGET: Mast/stem cell growth factor receptor Kit (Homo sapiens) (UniProt P10721)
- Sequence (P10721 whole entry): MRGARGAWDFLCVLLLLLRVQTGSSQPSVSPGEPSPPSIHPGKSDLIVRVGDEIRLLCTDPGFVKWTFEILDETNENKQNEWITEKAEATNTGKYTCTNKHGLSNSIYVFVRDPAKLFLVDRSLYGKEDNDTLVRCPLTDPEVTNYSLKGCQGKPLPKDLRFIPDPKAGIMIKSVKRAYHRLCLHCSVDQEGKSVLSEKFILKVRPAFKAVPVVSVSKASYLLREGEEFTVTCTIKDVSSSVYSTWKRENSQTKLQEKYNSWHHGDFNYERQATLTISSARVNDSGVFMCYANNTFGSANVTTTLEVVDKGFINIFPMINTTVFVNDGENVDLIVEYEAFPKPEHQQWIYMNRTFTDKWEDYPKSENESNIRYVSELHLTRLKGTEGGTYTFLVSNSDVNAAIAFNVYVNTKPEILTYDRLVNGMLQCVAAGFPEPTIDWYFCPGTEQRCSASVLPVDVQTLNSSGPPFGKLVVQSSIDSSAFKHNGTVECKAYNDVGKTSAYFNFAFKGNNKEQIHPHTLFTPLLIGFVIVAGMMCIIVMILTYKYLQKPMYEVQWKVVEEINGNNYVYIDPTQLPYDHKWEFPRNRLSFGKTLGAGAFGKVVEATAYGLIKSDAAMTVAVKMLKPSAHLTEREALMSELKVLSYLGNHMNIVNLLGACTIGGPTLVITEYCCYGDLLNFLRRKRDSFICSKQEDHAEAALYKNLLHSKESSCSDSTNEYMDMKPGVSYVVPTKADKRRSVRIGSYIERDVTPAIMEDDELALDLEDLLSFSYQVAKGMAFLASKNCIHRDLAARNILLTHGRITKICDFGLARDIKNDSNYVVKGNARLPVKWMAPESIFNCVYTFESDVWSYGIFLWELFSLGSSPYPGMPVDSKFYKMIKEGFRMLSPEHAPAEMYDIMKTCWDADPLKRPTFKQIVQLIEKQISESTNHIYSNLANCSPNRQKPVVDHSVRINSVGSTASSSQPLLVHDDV
- METHOD_NOTES: Inhibition of KIT (unknown origin) at 500 nM
Write it as a number; the unit % goes unstated.

Query: Form entry - test system: Mast/stem cell growth factor receptor Kit (Homo sapiens) (UniProt P10721); read-out: inhibition; compound: `COc1cc(C(N)=O)ccc1-c1cc2c(N[C@H](CO)c3ccccc3)ncnc2s1`
Response: -9

Query: Form entry - test system: Mast/stem cell growth factor receptor Kit (Homo sapiens) (UniProt P10721); read-out: inhibition; compound: `COc1cc(CO)ccc1-c1cc2c(N[C@H](C)c3ccccc3)ncnc2s1`
Response: 7

Query: Form entry - test system: Mast/stem cell growth factor receptor Kit (Homo sapiens) (UniProt P10721); read-out: inhibition; compound: `C[C@@H](Nc1ncnc2sc(-c3ccccc3C(N)=O)cc12)c1ccccc1`
Response: -7

Query: Form entry - test system: Mast/stem cell growth factor receptor Kit (Homo sapiens) (UniProt P10721); read-out: inhibition; compound: `COc1cc(CO)ccc1-c1cc2c(N[C@H](CO)c3ccccc3)ncnc2s1`
Response: 1

----------
- TEST_TARGET: Tyrosine-protein kinase Fyn (Homo sapiens)
- METHOD_NOTES: Inhibition of FYN (unknown origin) at 500 nM
Assign inhibition to each entry below.
Write it as a number; the unit % goes unstated.

Query: Report inhibition for `COc1cc(CO)ccc1-c1cc2c(N[C@H](C)c3ccccc3)ncnc2s1` please.
Response: 1

Query: Report inhibition for `COc1cc(CO)ccc1-c1cc2c(Nc3ccccc3)ncnc2s1` please.
Response: 6

Query: Report inhibition for `C[C@@H](Nc1ncnc2sc(-c3ccccc3C(N)=O)cc12)c1ccccc1` please.
Response: 7

Query: Report inhibition for `COc1cc(CO)ccc1-c1cc2c(Nc3ccc(F)c(Cl)c3)ncnc2s1` please.
Response: 5

Query: Report inhibition for `COc1cc(CO)ccc1-c1cc2c(N[C@H](CO)c3ccccc3)ncnc2s1` please.
Response: 12

Query: Report inhibition for `C[C@@H](Nc1ncnc2sc(-c3ccc(C(=O)NCCN(C)C)cc3)cc12)c1ccccc1` please.
Response: 19

Query: Report inhibition for `C#Cc1cccc(Nc2ncnc3sc(-c4ccc(CO)cc4OC)cc23)c1` please.
Response: 0

Query: Report inhibition for `COc1ccc(C(=O)NCCN(C)C)cc1-c1cc2c(N[C@H](C)c3ccccc3)ncnc2s1` please.
Response: 8

Query: Report inhibition for `CN(C)CCNC(=O)c1ccc(-c2cc3c(N[C@H](CO)c4ccccc4)ncnc3s2)cc1` please.
Response: 23

Query: Report inhibition for `COc1cc(C(N)=O)ccc1-c1cc2c(N[C@H](CO)c3ccccc3)ncnc2s1` please.
Response: 16

----------
- TEST_TARGET: Protein kinase C alpha type (Homo sapiens)
- METHOD_NOTES: Inhibition of PRKCA (unknown origin) at 500 nM
Assign inhibition to each entry below.
Write it as a number; the unit % goes unstated.

Query: Report inhibition for `COc1cc(C(N)=O)ccc1-c1cc2c(N[C@H](CO)c3ccccc3)ncnc2s1` please.
Response: -4

Query: Report inhibition for `C[C@@H](Nc1ncnc2sc(-c3ccc(C(=O)NCCN(C)C)cc3)cc12)c1ccccc1` please.
Response: 0

Query: Report inhibition for `COc1cc(CO)ccc1-c1cc2c(Nc3ccccc3)ncnc2s1` please.
Response: -1

Query: Report inhibition for `COc1cc(CO)ccc1-c1cc2c(Nc3ccc(F)c(Cl)c3)ncnc2s1` please.
Response: 2

Query: Report inhibition for `C#Cc1cccc(Nc2ncnc3sc(-c4ccc(CO)cc4OC)cc23)c1` please.
Response: -7

Query: Report inhibition for `C[C@@H](Nc1ncnc2sc(-c3ccccc3C(N)=O)cc12)c1ccccc1` please.
Response: 8
